experiment: Inhibitors of DNA Polymerase Beta: Hit Validation in Klenow Fragment Assay; conditions: Klenow exo- polymerase counter-screen, fluorescent DNA substrate; series mostly up to 57.1 µM
The other results are listed elsewhere or left out. Calls of active or inactive are those of the source. Calls come from the whole dose curve; as a rule, active = well fitted curve in the direction sought with a large enough effect; inconclusive = small, poorly fitted or top-dose-only effect, or another doubt; inactive = no such curve, though single readings can be large or run the other way.
property name: outcome

*Q* Bench note: what outcome did Cc1c(CCC(=O)O)c(=O)oc2c(C)c(OCc3ccccc3Cl)ccc12 show?
*A* inactive

*Q* Next molecule up: O=C(c1cc2c(s1)CCC2)N1CCN(c2ccccc2)CC1
*A* inactive

*Q* Next molecule up: O=C(CN1CCN(S(=O)(=O)c2cc(Cl)ccc2Cl)CC1)c1ccc(O)c(O)c1
*A* inactive

*Q* Next molecule up: O=C(Nc1ccc(S(=O)(=O)Nc2nccs2)cc1)c1cc(-c2ccncc2)nc2ccccc12
*A* inactive

*Q* Next molecule up: Cc1ccc2nc(-c3ccncc3)cc(C(=O)Nc3ccc(OC(F)F)cc3)c2c1
*A* inactive

***
*Q* Bench note: what outcome did COc1cc([C@H](Cc2ccccc2)NC(C)=O)oc(=O)c1 show?
*A* inactive

*Q* Next molecule up: CCOc1ccccc1/C=c1\sc2nc(-c3ccco3)nn2c1=O
*A* inactive
